# Test system: GST-LXRβ ligand-binding domain (Homo sapiens, UniProt P55055, INS174Q)
# Construct: amino acids 156-461; NP009052; made in house; host or cells: E. coli
# Sequence (P55055 with tags, fused parts or gaps INS174Q limits assumed): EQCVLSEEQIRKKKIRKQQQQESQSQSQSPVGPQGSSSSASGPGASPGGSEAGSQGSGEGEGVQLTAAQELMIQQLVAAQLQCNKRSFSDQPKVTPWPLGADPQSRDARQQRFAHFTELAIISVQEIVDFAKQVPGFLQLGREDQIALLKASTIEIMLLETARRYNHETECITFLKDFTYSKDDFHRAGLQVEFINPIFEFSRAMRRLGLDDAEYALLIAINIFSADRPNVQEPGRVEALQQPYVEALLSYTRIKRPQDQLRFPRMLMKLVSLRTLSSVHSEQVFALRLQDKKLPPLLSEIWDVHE
# Procedure details: TR-FRETβ activity assay (NCoA3 coactivator peptide recruitment)
# Assay type: biochemical
# Assay context: 1 μM 24(S)-25-epoxycholesterol as prestimulating agonist; inverse agonist unless *
pEC50: −log10 of the molar value.
Reported values of pEC50 for individual entries

compound=Cc1cc(C)c(CN(Cc2ccc(C(F)(F)F)o2)Cc2ccc(-c3cccc(S(=O)(=O)CC(=O)O)c3)cc2F)c(C)c1 test_system="GST-LXRβ ligand-binding domain (Homo sapiens, UniProt P55055, INS174Q)" result="5.00 to 6.00"

INPUT: Recorded pEC50 for `Cc1ccc2ccccc2c1C(=O)N(Cc1ccc(-c2cccc(C3(C(=O)O)CC3)c2)cc1)Cc1ccc(C(F)(F)F)o1` , please?
OUTPUT: 6.00 to 7.00

INPUT: Recorded pEC50 for `Cc1ccc(CN(Cc2ccc(-c3cccc(C(C)(C)C(=O)O)c3)cc2)C(=O)c2c(C)c(C)nc3cccnc23)o1` , please?
OUTPUT: 5.00 to 6.00

INPUT: Recorded pEC50 for `Cc1ccc2ccccc2c1C(=O)N(Cc1ccc(-c2cccc(C(C)(C)c3noc(=O)[nH]3)c2)cc1)Cc1ccc(C(F)(F)F)o1` , please?
OUTPUT: 6.00 to 7.00

INPUT: Recorded pEC50 for `Cc1ccc2ccccc2c1C(=O)N(Cc1ccc(-c2cccc(C(C)(C)C(=O)O)c2)cc1)Cc1ccc(C(F)(F)F)o1` , please?
OUTPUT: > 7.00

INPUT: Recorded pEC50 for `Cc1cc(C(=O)N(Cc2ccc(C(F)(F)F)o2)Cc2ccc(-c3cccc(C(C)(C)C(=O)O)c3)cc2Cl)c2ncccc2n1` , please?
OUTPUT: 6.00 to 7.00

----------
# Test system: GST-LXRβ ligand-binding domain (Homo sapiens, UniProt P55055, INS174Q)
# Construct: amino acids 156-461; NP009052
# Procedure details: TR-FRETβ activity assay (NCoA3 coactivator peptide recruitment)
# Assay context: 1 μM 24(S)-25-epoxycholesterol as prestimulating agonist; inverse agonist unless *
pEC50: −log10 of the molar value.
Measured quantity: pEC50

compound="Cc1nc(C)c(CN(Cc2ccc(-c3cc(F)c(CO)c(S(=O)(=O)CC(=O)O)c3)cc2)Cc2ccc(C(F)(F)F)o2)c(C)n1 [22/6]" measured_quantity=pEC50 result="5.00 to 6.00"

Could you now look at the following compound, please?
INPUT: Recorded pEC50 for Cc1ccc2ccccc2c1C(=O)N(Cc1ccc(-c2cccc(S(=O)(=O)CC(=O)O)c2)cc1)Cc1ccc(C#N)o1 [27/2] , please?
OUTPUT: 5.00 to 6.00

----------
# Test system: LXRα full length (FL) (Homo sapiens)
# Construct: the full length (FL) proteins of LXRα (amino acids 1-447); NP005684
# Sequence (Q13133 1-447): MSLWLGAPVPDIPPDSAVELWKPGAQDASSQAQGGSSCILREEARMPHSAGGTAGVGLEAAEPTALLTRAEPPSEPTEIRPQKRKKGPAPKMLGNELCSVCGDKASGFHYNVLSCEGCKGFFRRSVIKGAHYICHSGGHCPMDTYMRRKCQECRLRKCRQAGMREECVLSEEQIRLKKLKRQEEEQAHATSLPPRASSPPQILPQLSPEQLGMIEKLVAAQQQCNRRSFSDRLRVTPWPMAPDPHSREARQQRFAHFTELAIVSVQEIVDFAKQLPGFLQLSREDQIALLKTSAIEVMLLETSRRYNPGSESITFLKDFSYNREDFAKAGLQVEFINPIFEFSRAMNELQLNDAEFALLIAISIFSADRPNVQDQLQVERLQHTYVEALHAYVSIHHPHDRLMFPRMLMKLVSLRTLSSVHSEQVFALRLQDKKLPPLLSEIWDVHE
# Procedure details: LXR Gal4 reporter transient transfection assay, mammalian two-hybrid, FL-M2H Gal4α
# Assay context: HEK293 cells; inverse agonist unless *
Reported values of EC50 for individual entries

Some compounds with known EC50 results, for comparison:
compound=Cc1ccc2ccccc2c1CN(Cc1ccc(-c2cccc(C(C)(C)C(=O)O)c2)cc1)Cc1ccc(C(F)(F)F)o1 test_system="LXRα full length (FL) (Homo sapiens)" result="< 100 nM"
compound=Cc1ccc2c(F)cccc2c1CN(Cc1ccc(-c2cccc(C(C)(C)C(=O)O)c2)cc1)Cc1ccc(C(F)(F)F)o1 test_system="LXRα full length (FL) (Homo sapiens)" result="< 100 nM"
compound=Cc1ccc2ccccc2c1C(=O)N(Cc1ccc(-c2cccc(C(C)(C)C(=O)O)c2)cc1)Cc1ccc(C#N)o1 test_system="LXRα full length (FL) (Homo sapiens)" result="100 to 1000 nM"

INPUT: Recorded EC50 for `Cc1cc(C)c(CN(Cc2ccc(-c3cccc(S(=O)(=O)CC(=O)NO)c3)cc2)Cc2ccc(C(F)(F)F)o2)c(C)c1` , please?
OUTPUT: 100 to 1000 nM

INPUT: Recorded EC50 for `COc1cnc2cccnc2c1C(=O)N(Cc1ccc(C(F)(F)F)o1)Cc1ccc(-c2cccc(C(C)(C)C(=O)O)c2)cc1Cl` , please?
OUTPUT: < 100 nM

INPUT: Recorded EC50 for Cc1ccc2ccccc2c1C(=O)N(Cc1ccc(-c2cccc(C(C)(N)C(=O)O)c2)cc1)Cc1ccc(C(F)(F)F)o1 (centres unmarked) , please?
OUTPUT: 100 to 1000 nM

INPUT: Recorded EC50 for `Cc1ccc2ccccc2c1CN(Cc1ccc(-c2cccc([C@@H](C)C(=O)O)c2)cc1)Cc1ccc(C(F)(F)F)o1` , please?
OUTPUT: < 100 nM

INPUT: Recorded EC50 for `Cc1ccc2ccccc2c1C(=O)N(Cc1ccc(C(F)(F)F)o1)Cc1ccc(-c2cccc(S(=O)(=O)CC(=O)O)c2)cc1Cl` , please?
OUTPUT: 100 to 1000 nM

INPUT: Recorded EC50 for `Cc1ccc2ccccc2c1C(=O)N(Cc1ccc(C(F)(F)F)o1)Cc1ccc(-c2cncc(S(=O)(=O)CC(=O)O)c2)cc1C(F)(F)F` , please?
OUTPUT: 1000 to 10000 nM

INPUT: Recorded EC50 for `Cc1nc2cccnc2c(C(=O)N(Cc2ccc(-c3cccc(C(C)(C)C(=O)O)c3)cc2)Cc2cncc(C(F)(F)F)c2)c1C` , please?
OUTPUT: 100 to 1000 nM

INPUT: Recorded EC50 for `COc1cc(-c2cc(F)c(CO)c(S(=O)(=O)CC(=O)O)c2)cnc1CN(Cc1ccc(C(F)(F)F)o1)Cc1c(C)ccc2ccccc12` , please?
OUTPUT: 1000 to 10000 nM

INPUT: Recorded EC50 for `CC(C)(C(=O)O)c1cccc(-c2ccc(CN(Cc3ccc(C(F)(F)F)o3)C(=O)C3C(C)(C)CCC3(C)C)cc2)c1` , please?
OUTPUT: < 100 nM

INPUT: Recorded EC50 for `Cc1ccc2ccccc2c1C(=O)N(Cc1ccc(C(F)(F)F)o1)Cc1ccc(-c2cccc(C(C)(C)C(=O)O)c2)nc1N` , please?
OUTPUT: 100 to 1000 nM

INPUT: Recorded EC50 for `Cc1nc2cccnc2c(C(=O)N(Cc2ccc(C(F)(F)F)o2)Cc2ccc(-c3cccc(C(C)(C)C(=O)O)c3)cc2C#N)c1C` , please?
OUTPUT: 100 to 1000 nM

Origin of values: patent US20200131144A1
